Recorded EC50 values for a group of compounds are listed next.
assayed system: Kv7.2 (Homo sapiens, UniProt O43526)
assay name: Activation of Kv7.2 (in vitro assay, concentration response curve)
experimental conditions: activation of Kv7.2
measurement label: EC50 (nM)

compound | measurement label | quantity unit | reported
O=C(NCc1ccnc(OC(F)F)c1)N[C@@H]1[C@H]2CCC(F)(F)[C@H]21 (racemic) [Example 172] | EC50 | nM | 460
O=C(NCc1ccnc(CC(F)(F)F)c1)NC12CC(F)(C1)C2 | EC50 | nM | 5180
O=C(NCc1ccnc(OC(F)F)c1)NCC(O)C12CC(C1)C2 (centres unmarked) | EC50 | nM | 460
CC(C)(C)C(O)CNC(=O)NCc1ccnc(OC(F)F)c1 (centres unmarked) | EC50 | nM | 1160
[2H]C([2H])(NC(=O)NC12CCC(F)(CC1)CC2)c1ccnc(OC(F)F)c1 | EC50 | nM | 130
